FYI, the data here is from patent US20260234115A1.

Property: Organ Mean Total Flux Spleen; scope: individual compounds
tested on: mouse organs; assay: In vivo activity screening in mice: organ mean total flux (p/s) of luciferase activity after injection of F2 LNP pools (Table 6, FIG. 7A-7C); details: Mouse 14, dose 0.5 mg/kg, luciferase mRNA
Marks after values point to notes of the source that are not given here.

Known results for compounds:
COMPOUND	RESULT
CCCCC/C=C\C/C=C\CCCCCCCCC(CCCCCCCC/C=C\C/C=C\CCCCC)OC(=O)CCCN(C)C [MC3, reference compound]	8.5 p/s (×10^6)
CCCCC/C=C\CCOC(=O)CCCCCCC(=O)OCC(COC(=O)CCCCCCC(=O)OCC/C=C\CCCCC)(COC(=O)CCCCCCC(=O)OCC/C=C\CCCCC)COC(=O)CCC(CCCCCC)OC(=O)NCCN1CCCC1 (stereo not drawn) [Compound 10]	10.2 p/s (×10^6)

Moving on to the next compound.
State its Organ Mean Total Flux Spleen on mouse organs: CCCCC/C=C\CCOC(=O)CCCCC(=O)OCC(COC(=O)CCCCC(=O)OCC/C=C\CCCCC)(COC(=O)CCC(CCCC)CCOC(=O)NCCN1CCCC1)COC(=O)CC12CC3CC(CC(C3)C1)C2 (stereo not drawn) [Compound 61]
109.9 p/s (×10^6)

====

Entries annotated with measured PDI N/P:6
assay: Dynamic light scattering: LNP particle size and PDI; assay type: physicochemical; conditions: LNP, Formulation F3, N/P 6
The answer should be written as a number, with no unit following it.

Some compounds with known PDI N/P:6 results, for comparison:
COMPOUND	RECORDED NUMBER
CCCCC/C=C\C/C=C\CCCCCCCC(=O)OCC(COC(=O)CCCCCCC/C=C\C/C=C\CCCCC)(COC(=O)CCC(CCCCCC)OC(=O)NCCN1CCCC1)COC(=O)CC12CC3CC(CC(C3)C1)C2 (stereo not drawn)	0.06
CCCCC/C=C\CCOC(=O)CCCCCC(=O)OCC(COC(=O)CCCCCC(=O)OCC/C=C\CCCCC)(COC(=O)CCC(CCCCCC)OC(=O)NCCN1CCCC1)COC(=O)CC12CC3CC(CC(C3)C1)C2 (stereo not drawn)	0.12

Look up PDI N/P:6: CCCCCCCCOC(CCC(=O)OCC(COC(=O)CCCCCCOC(=O)C(CCCC)CCCCCC)(COC(=O)CCC(CCCCCC)OC(=O)NCCN1CCCC1)COC(=O)CCC(OCCCCCCCC)OCCCCCCCC)OCCCCCCCC (stereo not drawn)
0.03

====

In this section, each of the compounds is paired with its reported EE (%) N/P:6.
assay: Plate-based fluorescence (RiboGreen) assay: nucleic acid cargo content and encapsulation efficiency of LNPs; type: physicochemical; details: LNP, Formulation F2, N/P 6
Express it in %; write the number only.

Observe how each entry below is paired with its result.
COMPOUND	MEASUREMENT TYPE	RECORDED NUMBER
CCCCCCCC/C=C\CCCCCCCC(=O)OCC(COC(=O)CCCCCCC/C=C\CCCCCCCC)(COC(=O)CCC(CCCCCC)OC(=O)NCCN1CCCC1)COC(=O)CC12CC3CC(CC(C3)C1)C2 (centres unmarked) [Compound 3]	EE (%) N/P:6	99
CCCCCCCC/C=C\CCCCCCCC(=O)OCC(COC(=O)CCCCCCC/C=C\CCCCCCCC)(COC(=O)CCC(CCCCCC)OC(=O)NCCN1CCCC1)COC(=O)CCC(OCCCCCCCC)OCCCCCCCC (centres unmarked) [Compound 4]	EE (%) N/P:6	100
CCCCC/C=C\CCOC(=O)CCCCCC(=O)OCC(COC(=O)CCCCCC(=O)OCC/C=C\CCCCC)(COC(=O)CCC(CCCCCC)OC(=O)NCCN1CCCC1)COC(=O)CC12CC3CC(CC(C3)C1)C2 (centres unmarked) [Compound 8]	EE (%) N/P:6	99
CCCCC/C=C\CCOC(=O)CCCCCCC(=O)OCC(COC(=O)CCCCCCC(=O)OCC/C=C\CCCCC)(COC(=O)CCC(CCCCCC)OC(=O)NCCN1CCCC1)COC(=O)CC12CC3CC(CC(C3)C1)C2 (centres unmarked) [Compound 11]	EE (%) N/P:6	100

Read the next record carefully.
For CCCCC/C=C\CCOC(=O)CCCCC(=O)OCC(COC(=O)CCCCC(=O)OCC/C=C\CCCCC)(COC(=O)CCC(CCCCCC)OC(=O)NCCN1CCCC1)COC(=O)CC12CC3CC(CC(C3)C1)C2 (centres unmarked) [Compound 14] , what is its reported EE (%) N/P:6?
99
